Below: a set of entries, each annotated with reported pEC50.
# measured on: CB receptor-associated G-proteins
# test description: Ligand stimulated [35S]GTPγS binding assay in rat brain membrane homogenate
# Type: biochemical
# reported conditions: [35S]GTPγS binding, rat brain membranes; read-out: EC50
Scale: negative log10 of molar concentration, which is what pEC50 denotes.

Use these answered entries as a reference point.
Recorded pEC50 for COC(=O)[C@@H](NC(=O)c1nn(Cc2ccc(Cl)cc2Cl)c2ccccc12)C(C)(C)C , please? 8.08

Recorded pEC50 for COC(=O)c1nn(Cc2ccc(Cl)cc2Cl)c2ccccc12 [LONI C, reference compound] , please? 5.50

More entries:
Recorded pEC50 for CCCCCn1cc(C(=O)c2cccc3ccccc23)c2ccccc21 [JWH-018, reference compound] , please? 7.80

Recorded pEC50 for NC(=O)c1nn(Cc2ccc(Cl)cc2Cl)c2ccccc12 [LONI B, reference compound] , please? 5.56
